This collection of values is drawn from paper PMC8861878.

- test_target: CYP2C9 (Homo sapiens)
- Sequence (P11712 whole entry): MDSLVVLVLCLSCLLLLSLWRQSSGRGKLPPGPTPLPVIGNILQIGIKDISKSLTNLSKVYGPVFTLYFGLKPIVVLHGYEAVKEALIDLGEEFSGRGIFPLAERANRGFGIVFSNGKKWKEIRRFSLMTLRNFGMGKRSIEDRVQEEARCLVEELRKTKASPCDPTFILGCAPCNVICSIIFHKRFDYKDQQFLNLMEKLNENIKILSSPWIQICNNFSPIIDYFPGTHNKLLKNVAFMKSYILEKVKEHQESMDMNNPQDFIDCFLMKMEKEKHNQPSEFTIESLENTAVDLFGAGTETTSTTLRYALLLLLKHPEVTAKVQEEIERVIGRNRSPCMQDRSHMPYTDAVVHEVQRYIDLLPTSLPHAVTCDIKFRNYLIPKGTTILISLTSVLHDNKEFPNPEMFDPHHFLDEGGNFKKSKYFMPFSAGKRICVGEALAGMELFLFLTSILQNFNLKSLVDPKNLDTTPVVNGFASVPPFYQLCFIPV
- procedure_summary: Inhibition of CYP2C9
- Format: in vitro ADME
- study_conditions: Ki, substrate tolbutamide; mixed-type model (not selected)
measured_parameter: Ki (nM)

{"molecule": "CC(C)=CCc1c(O)ccc2c1O[C@H](c1ccc(O)cc1)CC2=O [isobavachin]", "measured_parameter": "Ki", "value_units": "nM", "experimental_result": 270}

---

- test_target: CYP2C9 (Homo sapiens)
pIC50: −log10 of the molar value.
measured_parameter: pIC50

{"compound_string": "CC(C)=CCc1c(O)ccc2c1O[C@H](c1ccc(O)cc1)CC2=O", "experimental_result": 7.40}

---

- test_target: CYP2C19 (Homo sapiens, UniProt P33261)
- Sequence (P33261 whole entry): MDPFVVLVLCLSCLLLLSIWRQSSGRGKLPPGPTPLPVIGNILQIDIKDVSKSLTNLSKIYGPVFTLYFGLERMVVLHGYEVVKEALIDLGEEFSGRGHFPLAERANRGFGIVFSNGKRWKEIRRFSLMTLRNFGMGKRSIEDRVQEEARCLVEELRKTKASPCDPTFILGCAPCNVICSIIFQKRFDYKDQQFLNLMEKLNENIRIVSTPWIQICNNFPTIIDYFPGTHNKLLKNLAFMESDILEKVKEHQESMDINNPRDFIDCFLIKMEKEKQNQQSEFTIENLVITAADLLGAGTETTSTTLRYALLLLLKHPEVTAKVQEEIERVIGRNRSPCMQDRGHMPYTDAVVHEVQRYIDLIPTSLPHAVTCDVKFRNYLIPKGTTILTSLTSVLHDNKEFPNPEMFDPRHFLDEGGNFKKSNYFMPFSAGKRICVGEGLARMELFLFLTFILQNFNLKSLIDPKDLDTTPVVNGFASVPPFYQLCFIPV
- procedure_summary: Inhibition of CYP2C19
- Assay type: in vitro ADME
- study_conditions: Ki, substrate mephenytoin; competitive model (selected, smallest AIC and SC)
pKi: −log10 of the molar value.

{"compound": "CC(C)=CCc1c(O)ccc2c1O[C@H](c1ccc(O)cc1)CC2=O [isobavachin]", "test_target": "CYP2C19 (Homo sapiens, UniProt P33261)", "pKi": 5.81}

---

Target chain: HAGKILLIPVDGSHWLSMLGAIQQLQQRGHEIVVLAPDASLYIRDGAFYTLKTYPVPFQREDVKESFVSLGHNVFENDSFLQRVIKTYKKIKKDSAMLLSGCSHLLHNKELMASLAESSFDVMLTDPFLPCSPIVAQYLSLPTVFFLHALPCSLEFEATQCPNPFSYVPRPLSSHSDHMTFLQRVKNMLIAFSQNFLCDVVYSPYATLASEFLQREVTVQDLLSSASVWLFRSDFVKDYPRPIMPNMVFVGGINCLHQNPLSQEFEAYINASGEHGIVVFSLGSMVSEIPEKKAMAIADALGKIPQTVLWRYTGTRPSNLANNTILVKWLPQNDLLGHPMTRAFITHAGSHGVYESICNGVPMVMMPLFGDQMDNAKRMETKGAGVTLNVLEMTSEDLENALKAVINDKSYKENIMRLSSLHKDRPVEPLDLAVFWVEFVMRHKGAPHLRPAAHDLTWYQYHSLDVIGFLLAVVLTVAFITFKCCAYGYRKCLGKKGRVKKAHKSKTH
pIC50: −log10 of the molar value.

{"compound_string": "CC(C)=CCc1c(O)ccc2c1O[C@H](c1ccc(O)cc1)CC2=O", "pIC50": 5.82}

---

- test_target: CYP2B6 (Homo sapiens, UniProt P20813)
- Sequence (P20813 1-491): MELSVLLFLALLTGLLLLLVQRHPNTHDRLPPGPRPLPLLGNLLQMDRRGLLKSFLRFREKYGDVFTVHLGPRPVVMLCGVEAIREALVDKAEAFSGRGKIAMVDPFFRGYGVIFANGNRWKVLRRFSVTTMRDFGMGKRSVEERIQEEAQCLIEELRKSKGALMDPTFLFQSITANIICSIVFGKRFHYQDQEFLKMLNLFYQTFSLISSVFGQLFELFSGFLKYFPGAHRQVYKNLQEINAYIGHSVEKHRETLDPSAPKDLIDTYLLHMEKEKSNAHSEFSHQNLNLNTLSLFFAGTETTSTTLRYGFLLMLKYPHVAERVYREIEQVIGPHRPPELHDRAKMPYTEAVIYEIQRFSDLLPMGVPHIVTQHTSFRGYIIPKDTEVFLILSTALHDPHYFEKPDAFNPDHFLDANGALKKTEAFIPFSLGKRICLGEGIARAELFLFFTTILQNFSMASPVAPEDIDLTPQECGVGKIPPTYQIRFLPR
pIC50: −log10 of the molar value.

{"compound_string": "CC(C)=CCc1c(O)ccc2c1O[C@H](c1ccc(O)cc1)CC2=O", "test_target": "CYP2B6 (Homo sapiens, UniProt P20813)", "pIC50": 5.30}

---

- test_target: UGT1A9 (Homo sapiens)
- Sequence (O60656 26-530): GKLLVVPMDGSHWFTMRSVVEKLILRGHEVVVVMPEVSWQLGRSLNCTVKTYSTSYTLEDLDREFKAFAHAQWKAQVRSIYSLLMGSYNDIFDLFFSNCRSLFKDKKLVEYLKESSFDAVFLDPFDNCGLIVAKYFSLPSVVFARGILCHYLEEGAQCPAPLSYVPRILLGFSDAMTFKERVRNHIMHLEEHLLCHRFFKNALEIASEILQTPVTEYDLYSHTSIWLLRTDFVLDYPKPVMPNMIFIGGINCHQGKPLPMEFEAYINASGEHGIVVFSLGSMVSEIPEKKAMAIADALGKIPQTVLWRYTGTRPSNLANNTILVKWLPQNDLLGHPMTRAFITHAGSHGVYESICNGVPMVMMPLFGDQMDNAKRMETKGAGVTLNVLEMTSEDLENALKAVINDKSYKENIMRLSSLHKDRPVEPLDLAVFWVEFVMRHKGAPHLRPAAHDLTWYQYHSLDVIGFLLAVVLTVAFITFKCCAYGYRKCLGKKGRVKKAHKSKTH
- procedure_summary: Inhibition of UGT1A9
- Assay type: in vitro ADME
- study_conditions: Ki, substrate propofol; mixed-type model (not selected)
pKi: −log10 of the molar value.
measured_parameter: pKi

{"compound": "CC(C)=CCc1c(O)ccc2c1O[C@H](c1ccc(O)cc1)CC2=O [isobavachin]", "experimental_result": 6.37}

---

- test_target: UniProt P33261
measured_parameter: IC50

{"compound_string": "CC(C)=CCc1c(O)ccc2c1O[C@H](c1ccc(O)cc1)CC2=O", "measured_parameter": "IC50", "experimental_result": "270 nM"}

---

- test_target: CYP2B6 (Homo sapiens)
- Sequence (P20813 1-491): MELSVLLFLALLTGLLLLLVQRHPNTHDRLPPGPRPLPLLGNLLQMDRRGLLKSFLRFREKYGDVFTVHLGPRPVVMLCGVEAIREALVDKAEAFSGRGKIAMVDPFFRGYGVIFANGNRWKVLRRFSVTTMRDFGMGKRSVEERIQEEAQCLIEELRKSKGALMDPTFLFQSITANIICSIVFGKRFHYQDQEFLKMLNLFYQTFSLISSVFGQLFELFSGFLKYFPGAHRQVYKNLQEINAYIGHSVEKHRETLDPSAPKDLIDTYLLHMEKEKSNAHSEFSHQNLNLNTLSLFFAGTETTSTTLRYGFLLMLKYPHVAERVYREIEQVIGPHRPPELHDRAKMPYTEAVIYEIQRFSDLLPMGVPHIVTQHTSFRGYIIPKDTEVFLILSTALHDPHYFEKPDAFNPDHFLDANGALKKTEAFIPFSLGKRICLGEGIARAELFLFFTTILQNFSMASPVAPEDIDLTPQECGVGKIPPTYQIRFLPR
- procedure_summary: Inhibition of CYP2B6
- Assay type: in vitro ADME
- study_conditions: Ki, substrate bupropion; mixed-type model (not selected)
pKi: −log10 of the molar value.
measured_parameter: pKi

{"compound_string": "CC(C)=CCc1c(O)ccc2c1O[C@H](c1ccc(O)cc1)CC2=O", "experimental_result": 5.84}

---

- test_target: UniProt:P33261
- procedure_summary: Inhibition of CYP2C19
- Assay type: in vitro ADME
- study_conditions: Ki, substrate mephenytoin; non-competitive model (not selected)

{"compound_string": "CC(C)=CCc1c(O)ccc2c1O[C@H](c1ccc(O)cc1)CC2=O", "Ki": "3.34 µM"}

---

- test_target: CYP2B6 (Homo sapiens, UniProt P20813)
- procedure_summary: Inhibition of CYP2B6
- Assay type: in vitro ADME
- study_conditions: Ki, substrate bupropion; non-competitive model (selected, smallest AIC and SC)

{"compound_string": "CC(C)=CCc1c(O)ccc2c1O[C@H](c1ccc(O)cc1)CC2=O", "Ki (nM)": 1930}

---

- test_target: UGT2B7 (Homo sapiens, UniProt P16662)
- Sequence (P16662 24-529): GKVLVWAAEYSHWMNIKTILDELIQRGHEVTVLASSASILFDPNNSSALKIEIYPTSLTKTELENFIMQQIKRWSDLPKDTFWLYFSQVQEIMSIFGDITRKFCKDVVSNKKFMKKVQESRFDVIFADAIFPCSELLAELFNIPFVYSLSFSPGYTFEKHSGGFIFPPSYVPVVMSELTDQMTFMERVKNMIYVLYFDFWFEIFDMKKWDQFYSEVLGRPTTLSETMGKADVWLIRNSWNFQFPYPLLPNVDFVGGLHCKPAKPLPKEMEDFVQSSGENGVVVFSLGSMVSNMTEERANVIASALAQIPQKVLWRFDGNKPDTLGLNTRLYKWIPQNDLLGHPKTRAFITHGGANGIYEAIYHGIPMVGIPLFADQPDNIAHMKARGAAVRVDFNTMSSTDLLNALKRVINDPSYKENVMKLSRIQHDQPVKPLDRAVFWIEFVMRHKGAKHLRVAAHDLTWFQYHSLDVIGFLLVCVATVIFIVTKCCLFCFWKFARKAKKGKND
- procedure_summary: Inhibition of UGT2B7
- Format: in vitro ADME
- study_conditions: Ki, substrate zidovudine; mixed-type model (not selected)

{"compound": "CC(C)=CCc1c(O)ccc2c1O[C@H](c1ccc(O)cc1)CC2=O [isobavachin]", "Ki, µM": 0.04}
